Test system: citric acid-induced cough in conscious guinea pigs
PROTOCOL_DETAILS: Citric acid-induced cough in conscious guinea pigs, GABAB agonists given subcutaneously
Format: in vivo, guinea pig
CONDITIONS_USED: 0.3 mg/kg s.c.; citric acid 1 M
Measured Cumulative number of coughs evoked by citric acid, listed per entry for reference.
RECORDED_METRIC: Cumulative number of coughs evoked by citric acid

{"MOLECULE": "NC[C@@H](F)C[PH](=O)O", "TEST_TARGET": "citric acid-induced cough in conscious guinea pigs", "MEASURED_RESULT": 27.6}
{"MOLECULE": "NCC(CC(=O)O)c1ccc(Cl)cc1 (stereo not shown)", "TEST_TARGET": "citric acid-induced cough in conscious guinea pigs", "MEASURED_RESULT": 25.7}
{"MOLECULE": "NCCC[PH](=O)O", "TEST_TARGET": "citric acid-induced cough in conscious guinea pigs", "MEASURED_RESULT": 28.8}
{"MOLECULE": "CP(=O)(O)CCCN", "TEST_TARGET": "citric acid-induced cough in conscious guinea pigs", "MEASURED_RESULT": 19.2}

###

PROTOCOL_DETAILS: Pharmacokinetics in female dogs after single intravenous and oral doses
Type: in vivo, dog
CONDITIONS_USED: female, Beagle and Labrador, dog, in vivo
RECORDED_METRIC: half-life (h)

{"MOLECULE": "NC[C@@H](F)C[PH](=O)O [A]", "MEASURED_RESULT": 7.5}
